FYI, the data here is from the Kinase Knowledgebase extract (Sharma et al. 2016).

- targetUnderTest: ROCK1;ROCK2 (human) (UniProt O75116)
- Sequence (O75116 whole entry, looked up): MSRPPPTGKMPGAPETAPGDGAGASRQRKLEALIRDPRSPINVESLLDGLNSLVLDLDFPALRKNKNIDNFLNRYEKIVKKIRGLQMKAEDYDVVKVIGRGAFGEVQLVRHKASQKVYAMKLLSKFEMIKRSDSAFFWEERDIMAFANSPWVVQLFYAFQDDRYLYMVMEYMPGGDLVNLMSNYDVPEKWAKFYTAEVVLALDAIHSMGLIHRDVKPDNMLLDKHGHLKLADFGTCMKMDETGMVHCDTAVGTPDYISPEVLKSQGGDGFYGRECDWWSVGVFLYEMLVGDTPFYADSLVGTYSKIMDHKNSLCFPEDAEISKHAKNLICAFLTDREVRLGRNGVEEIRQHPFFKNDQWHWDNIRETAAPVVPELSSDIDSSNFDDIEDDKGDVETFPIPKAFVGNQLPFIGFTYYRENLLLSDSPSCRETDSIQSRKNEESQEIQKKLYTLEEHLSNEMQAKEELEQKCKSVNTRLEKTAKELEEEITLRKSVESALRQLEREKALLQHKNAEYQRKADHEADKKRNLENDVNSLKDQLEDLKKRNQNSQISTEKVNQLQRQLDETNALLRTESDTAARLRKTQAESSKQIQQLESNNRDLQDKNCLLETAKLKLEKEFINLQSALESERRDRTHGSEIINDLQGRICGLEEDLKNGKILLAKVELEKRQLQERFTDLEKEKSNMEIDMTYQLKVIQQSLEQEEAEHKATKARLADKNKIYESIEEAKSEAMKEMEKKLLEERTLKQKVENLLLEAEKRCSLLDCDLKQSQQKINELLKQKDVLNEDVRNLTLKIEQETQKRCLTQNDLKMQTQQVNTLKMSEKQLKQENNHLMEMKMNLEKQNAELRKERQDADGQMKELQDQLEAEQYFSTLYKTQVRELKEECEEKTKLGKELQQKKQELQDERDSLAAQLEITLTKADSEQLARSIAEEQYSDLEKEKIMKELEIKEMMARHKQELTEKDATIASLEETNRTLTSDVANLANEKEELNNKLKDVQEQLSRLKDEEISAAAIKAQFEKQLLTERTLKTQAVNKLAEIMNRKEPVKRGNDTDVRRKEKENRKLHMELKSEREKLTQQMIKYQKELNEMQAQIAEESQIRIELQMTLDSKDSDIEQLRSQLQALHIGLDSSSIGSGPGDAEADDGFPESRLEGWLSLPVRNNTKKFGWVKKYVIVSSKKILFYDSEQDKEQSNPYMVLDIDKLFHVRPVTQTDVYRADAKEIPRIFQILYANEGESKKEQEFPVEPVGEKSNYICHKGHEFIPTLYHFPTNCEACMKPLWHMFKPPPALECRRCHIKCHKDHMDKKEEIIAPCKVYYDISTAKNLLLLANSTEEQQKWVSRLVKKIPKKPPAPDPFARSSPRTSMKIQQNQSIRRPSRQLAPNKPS
- procedureDetails: Inhibition of ROCK1/ROCK2 Kinase Activity
pIC50: −log10 of the molar value.
measurementName: pIC50

// below: answered compounds
compound	pIC50
CC(N)c1ccc(C(=O)Nc2ccncc2)cc1N (stereo not drawn)	5.30 to 6.30
CC(N)c1ccc(C(=O)Nc2ccncc2)cc1OCCO (stereo not drawn)	5.30 to 6.30

[ask] Form entry - test system: ROCK1;ROCK2 (human) (UniProt O75116); read-out: pIC50; compound: CC(N)c1ccc(C(=O)Nc2ccncc2)cc1NC(=O)c1ccco1 (stereo not drawn)
[reply] 6.30 to 7.30

* * *

- targetUnderTest: ROCK1;ROCK2 (human) (UniProt O75116)
- procedureDetails: Inhibition of ROCK1/ROCK2 Kinase Activity
pIC50: −log10 of the molar value.
measurementName: pIC50

compound	pIC50
CC(N)c1ccc(C(=O)Nc2ccncc2)cc1-c1cccc(Cl)c1 (stereo not drawn)	> 7.30
COc1cccc(C(=O)Nc2cc(C(=O)Nc3ccncc3)ccc2C(C)N)c1 (stereo not drawn)	> 7.30
CC(N)c1ccc(C(=O)Nc2ccncc2)cc1-c1ccoc1 (stereo not drawn)	6.30 to 7.30
CC(N)c1ccc(C(=O)Nc2ccncc2)cc1OCCCN (stereo not drawn)	5.30 to 6.30
CC(N)c1ccc(C(=O)Nc2ccncc2)cc1NC(=O)Nc1ccccc1 (stereo not drawn)	6.30 to 7.30
CC(N)c1ccc(C(=O)Nc2ccncc2)cc1-c1ccc(Cl)cc1 (stereo not drawn)	> 7.30
CC(N)c1ccc(C(=O)Nc2ccncc2)cc1-c1ccc(F)cc1 (stereo not drawn)	> 7.30
CC(N)c1ccc(C(=O)Nc2ccncc2)cc1NC(=S)Nc1ccccc1 (stereo not drawn)	6.30 to 7.30
C[C@@H](N)c1ccc(C(=O)Nc2ccncc2)cc1-c1cccs1	> 7.30
CC(N)c1ccc(C(=O)Nc2ccncc2)cc1OCCN (stereo not drawn)	5.30 to 6.30

[ask] I'd like to know its pIC50. The compound in question is CC(N)c1ccc(C(=O)Nc2ccncc2)cc1NCc1ccco1 (stereo not drawn)
[reply] 6.30 to 7.30

[ask] Repeat for the following compound: CC(N)c1ccc(C(=O)Nc2ccncc2)cc1NC(=O)c1ccc(Cl)cc1 (stereo not drawn)
[reply] 6.30 to 7.30

[ask] Repeat for the following compound: CC(N)c1ccc(C(=O)Nc2ccncc2)cc1[N+](=O)[O-] (stereo not drawn)
[reply] 6.30 to 7.30

[ask] Repeat for the following compound: CC(N)c1ccc(C(=O)Nc2ccncc2)cc1OCCCO (stereo not drawn)
[reply] 5.30 to 6.30

[ask] Repeat for the following compound: CC(N)c1ccc(C(=O)Nc2ccncc2)cc1-c1cccs1 (stereo not drawn)
[reply] > 7.30

[ask] Repeat for the following compound: COc1ccc(-c2cc(C(=O)Nc3ccncc3)ccc2C(C)N)cc1 (stereo not drawn)
[reply] 6.30 to 7.30

[ask] Repeat for the following compound: CC(N)c1ccc(C(=O)Nc2ccncc2)cc1NC(=O)c1cccc(Cl)c1 (stereo not drawn)
[reply] 6.30 to 7.30

[ask] Repeat for the following compound: CC(N)c1ccc(C(=O)Nc2ccncc2)cc1-c1ccc2ccccc2c1 (stereo not drawn)
[reply] > 7.30

[ask] Repeat for the following compound: CC(N)c1ccc(C(=O)Nc2ccncc2)cc1O (stereo not drawn)
[reply] 5.30 to 6.30

[ask] Repeat for the following compound: C[C@H](N)c1ccc(C(=O)Nc2ccncc2)cc1-c1cccs1
[reply] 6.30 to 7.30

[ask] Repeat for the following compound: CC(N)c1ccc(C(=O)Nc2ccncc2)cc1OCc1ccccc1 (stereo not drawn)
[reply] 6.30 to 7.30

[ask] Repeat for the following compound: COc1ccc(C(=O)Nc2cc(C(=O)Nc3ccncc3)ccc2C(C)N)cc1 (stereo not drawn)
[reply] > 7.30

[ask] Repeat for the following compound: CC(N)c1ccc(C(=O)Nc2ccncc2)cc1NC(=O)c1ccccc1 (stereo not drawn)
[reply] 6.30 to 7.30
